molecular target: T1, hPDGFRb.mmh (human, UniProt P09619 33-531); assay: SPR, mAb captured, 25 C
T1 construct: Soluble monomeric construct; also called soluble human PDGFR-beta.mmh
T1 sequence (P09619 other isoform, or with tags, fused parts or gaps): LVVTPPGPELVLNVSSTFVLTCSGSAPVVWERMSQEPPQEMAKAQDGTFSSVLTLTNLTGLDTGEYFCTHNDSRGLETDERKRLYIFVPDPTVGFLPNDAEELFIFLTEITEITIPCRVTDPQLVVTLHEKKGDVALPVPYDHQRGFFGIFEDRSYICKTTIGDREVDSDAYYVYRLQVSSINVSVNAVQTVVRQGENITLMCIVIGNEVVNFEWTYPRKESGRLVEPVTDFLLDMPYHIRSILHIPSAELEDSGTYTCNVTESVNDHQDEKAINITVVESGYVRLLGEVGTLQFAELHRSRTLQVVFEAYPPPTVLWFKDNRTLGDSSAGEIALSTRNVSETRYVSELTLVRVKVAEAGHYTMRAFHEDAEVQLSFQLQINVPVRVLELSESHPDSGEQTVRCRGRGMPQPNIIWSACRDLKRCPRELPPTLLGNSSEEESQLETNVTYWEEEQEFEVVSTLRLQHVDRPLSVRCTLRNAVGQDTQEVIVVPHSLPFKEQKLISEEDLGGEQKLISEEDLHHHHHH
endpointName: pKd
# log scale: pKd equals minus log10 of the concentration in mol/L

Solved cases (3 shown):
{"binder": "H2M3373N (antibody, V domains shown, mouse Fc (H2M prefix; isotype not spelled out)) VH: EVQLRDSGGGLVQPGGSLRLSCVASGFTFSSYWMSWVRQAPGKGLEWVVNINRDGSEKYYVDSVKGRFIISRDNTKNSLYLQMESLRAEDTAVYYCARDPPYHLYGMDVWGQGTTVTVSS VL: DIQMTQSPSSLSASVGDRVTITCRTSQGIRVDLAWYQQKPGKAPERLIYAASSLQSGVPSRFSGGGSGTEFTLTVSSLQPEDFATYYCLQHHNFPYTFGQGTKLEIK", "endpointName": "pKd", "numericReadout": 7.91}
{"binder": "H4H3098S (antibody, human IgG4, V domains shown, human IgG4 Fc (H4H prefix)) VH: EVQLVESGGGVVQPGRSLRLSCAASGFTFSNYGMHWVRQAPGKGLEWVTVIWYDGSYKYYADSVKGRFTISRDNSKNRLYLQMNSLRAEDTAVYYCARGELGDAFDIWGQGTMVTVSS VL: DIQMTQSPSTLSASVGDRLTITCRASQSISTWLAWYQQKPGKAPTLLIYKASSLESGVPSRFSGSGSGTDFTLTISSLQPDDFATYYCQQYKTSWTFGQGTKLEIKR", "endpointName": "pKd", "numericReadout": 8.81}
{"binder": "H2M3368N (antibody, V domains shown, mouse Fc (H2M prefix; isotype not spelled out)) VH: QVQLQQWGAGLLKPSETLSLTCAVYGGSFSGYYWTWIRQSPGKGLEWMGEISHRGTTNYNPSLKSRLTISLDTSNNHFSLKLSSVTAADTAVYYCAREERLGMGYDYFGLDVWGQGTTVTVSS VL: EIVLTQSPATLSLSPGERATLSCRASQSVSTYLTWYQQKPGQAPRLLIYDASNRATGIPARFSGSGSGTDFTLTISSLEPEDCAVYYCQQRSIWITFGQGTRLEIK", "endpointName": "pKd", "numericReadout": 8.13}

Q: # get_value(readout='pKd', item= H4H3103S (antibody, human IgG4, V domains shown, human IgG4 Fc (H4H prefix)) VH: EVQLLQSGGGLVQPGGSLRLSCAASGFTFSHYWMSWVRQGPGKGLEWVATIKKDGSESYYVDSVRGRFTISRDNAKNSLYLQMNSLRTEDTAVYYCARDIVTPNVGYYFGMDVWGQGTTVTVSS VL: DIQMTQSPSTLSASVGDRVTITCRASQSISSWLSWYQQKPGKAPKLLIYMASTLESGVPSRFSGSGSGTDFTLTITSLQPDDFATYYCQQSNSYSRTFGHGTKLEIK )
Ans: 8.50

Q: Now give it for H4H3106S (antibody, human IgG4, V domains shown, human IgG4 Fc (H4H prefix)) VH: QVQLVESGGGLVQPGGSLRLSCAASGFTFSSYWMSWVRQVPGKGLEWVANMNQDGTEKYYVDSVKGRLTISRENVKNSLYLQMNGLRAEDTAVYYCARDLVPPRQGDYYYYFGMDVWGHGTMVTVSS VL: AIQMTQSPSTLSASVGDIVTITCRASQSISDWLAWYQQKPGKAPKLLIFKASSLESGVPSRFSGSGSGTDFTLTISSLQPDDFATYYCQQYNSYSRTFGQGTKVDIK too.
Ans: 8.60
